From: ChEMBL document CHEMBL1135360

target_of_assay: Endothelin-1 receptor (Homo sapiens, UniProt P25101)
Sequence (P25101 whole entry): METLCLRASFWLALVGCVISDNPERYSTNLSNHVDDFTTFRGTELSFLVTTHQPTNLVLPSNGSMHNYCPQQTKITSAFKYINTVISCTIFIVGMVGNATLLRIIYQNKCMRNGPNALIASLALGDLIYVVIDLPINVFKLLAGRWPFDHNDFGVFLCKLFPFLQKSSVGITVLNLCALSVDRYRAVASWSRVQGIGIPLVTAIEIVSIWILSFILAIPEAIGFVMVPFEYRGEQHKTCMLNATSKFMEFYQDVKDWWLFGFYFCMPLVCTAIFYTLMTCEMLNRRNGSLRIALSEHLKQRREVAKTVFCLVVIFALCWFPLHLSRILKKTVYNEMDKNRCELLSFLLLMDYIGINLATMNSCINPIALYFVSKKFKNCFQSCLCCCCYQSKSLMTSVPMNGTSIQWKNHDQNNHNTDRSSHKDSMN
pIC50: −log10 of the molar value.
Assign class by pIC50: not lower than 8 means met; lower than 8 means not met.

Some solved entries appear below for comparison.
# check: pIC50 of CCn1cc(C(C(=O)NS(=O)(=O)c2ccc(C(C)C)cc2)c2ccc3c(c2)OCO3)c2ccc(C(=O)O)cc21 (stereo not drawn) is greater than or equal to 8 not met

Say whether Cc1ccc(S(=O)(=O)NC(=O)C(c2ccc3c(c2)OCO3)c2cn(C)c3cc(C(N)=O)ccc23)cc1 (stereo not drawn) shows pIC50 of 8 or more. met

Does pIC50 meet or surpass 8 for CC(C)c1ccc(S(=O)(=O)NC(=O)C(c2ccc3c(c2)OCO3)c2cn(C)c3cc(C#N)ccc23)cc1 (stereo not drawn) ? not met

pIC50 >= 8 for CC(C)c1ccc(S(=O)(=O)NC(=O)C(c2ccc3c(c2)OCO3)c2cn(C)c3cc(C(N)=O)ccc23)cc1 (stereo not drawn) ? met

Can CCn1cc(C(C(=O)NS(=O)(=O)c2ccc(C(C)C)cc2)c2ccc3c(c2)OCO3)c2ccc(C(N)=O)cc21 (stereo not drawn) be said to have pIC50 at or above 8? met

Further cases:
I'd appreciate it if you could say whether CCn1cc(C(C(=O)NS(=O)(=O)c2ccc(C(C)C)cc2)c2ccc3c(c2)OCO3)c2ccc(C(=O)OC)cc21 (stereo not drawn) has pIC50 at least equal to 8. not met
